measurement_conditions: in n-pentanol, 298.15 K
measured_endpoint: solubility (mole fraction)
# answer = number (no unit)

Inquiry: Could you tell me which solubility (mole fraction) is on file for O=C(N[C@@H](CO)C(=O)O)OCc1ccccc1 ?
Reply text: 0.039

---

measurement_conditions: in n-pentanol, 303.15 K
measured_endpoint: solubility (mole fraction)
# answer = number (no unit)

Inquiry: Could you tell me which solubility (mole fraction) is on file for O=C(N[C@@H](CO)C(=O)O)OCc1ccccc1 ?
Reply text: 0.0455

---

measurement_conditions: in isobutanol, 288.15 K
measured_endpoint: solubility (mole fraction)
# answer = number (no unit)

Inquiry: Could you tell me which solubility (mole fraction) is on file for O=C(N[C@@H](CO)C(=O)O)OCc1ccccc1 ?
Reply text: 0.0246
